Attribute: TGI
- System: NCI-H522 lung
- EXPERIMENTAL PROTOCOL: NCI tumour cell line growth inhibition, 48 h

MOLECULE: CC1(c2ccccc2)N=C(C(N)=O)c2[nH]cnc2N1 (stereo not drawn)
TGI: > 100 µM

MOLECULE: O=C(O)/C=C/C=C/c1ccc2c(c1)OCO2
TGI: > 100 µM

MOLECULE: O=C1Nc2ccccc2/C1=C/C(=O)c1ccc(N2CCCC2)cc1
TGI: > 100 µM

MOLECULE: O=C(c1cc(Cl)ccc1Cl)N1CCN(c2ccc(Cl)c(Cl)c2)CC1
TGI: 52.6 µM

MOLECULE: CCOC(NC(=O)CC)(C(F)(F)F)C(F)(F)F
TGI: > 100 µM

MOLECULE: Cc1ccc(S(=O)(=O)NNC(=O)Nc2ccc(Cl)cc2)cc1
TGI: > 100 µM

MOLECULE: CCN(Cc1ccccc1F)c1ccc(CO)c(Cl)c1
TGI: 39.1 µM

MOLECULE: N#CCCN(c1ccc(/C=N/c2nc(-c3ccccc3)cs2)cc1)S(=O)(=O)c1ccccc1
TGI: > 100 µM
